Here the recorded pIC50 is given for each entry.
ASSAYED_SYSTEM: Wild type Reverse Transcriptase (Human immunodeficiency virus type 1 group M subtype B, UniProt P12497)
Construct: The level of resistance to NRTI-TP by the S68del mutants compared to wild type RT
ASSAY_COMMENT: Heteropolymeric DNA polymerase RT assay in the absence of ATP, wild type RT
TEST_CONTEXT: Wild type RT
Quick note: pIC50 means taking -log10 of the concentration in moles per liter.

// below: answered compounds
Cc1cn(C2CC(N=[N+]=[N-])C(COP(=O)(O)OP(=O)(O)OP(=O)(O)O)O2)c(=O)[nH]c1=O (stereo not drawn) = 6.57
Nc1nc(=O)n(C2C=CC(COP(=O)(O)OP(=O)(O)OP(=O)(O)O)O2)cc1F (stereo not drawn) = 6.85

Then there is this compound:
Lab book: pIC50 of Nc1nc(=O)n(C2CSC(COP(=O)(O)OP(=O)(O)OP(=O)(O)O)O2)cc1F (single isomer, unassigned; (-)) [(−)FTC-TP] noted as 5.46

Sourced from patent US9428815B2
